The reported numbers originate from the supplement of paper PMC11451515.

# Tested on: NOMO1
# ASSAY NOTES: cell viability relative to DMSO control; higher = less cytotoxic
# TEST CONDITIONS: HPLM + 10% dialyzed FBS; 48 h; 15.4 µM
READOUT NAME: cell viability

MOLECULE	RESULT
CC\1=C(C(\N=C(/N1)C2=CC(=NC=C2)Cl)C3=C(F)C=C(Cl)C=C3)/C(=O)NC4=C(F)C=C5[NH]N=CC5=C4 (centres undefined)	115%
CC1(C)CCC[C@]2(C)[C@H]3CC(=O)O[C@]3(C)CC[C@@H]12	120%
CN(CC#C)C/C1=C/C2=CC=CC=C2OC3=CC=CC=C13	65.1%
C/C=C(/C)C(=O)O[C@H]1C(C)=C2[C@H]([C@@H]1OC(=O)CCCCCCC)[C@@](C)(OC(C)=O)C[C@H](OC(=O)CCC)[C@@]1(O)[C@H]2OC(=O)[C@@]1(C)O	2.91%
CCCCCCCCCCCCCCCCCCCCCCO	147%
COC1CCC(CC1)N(C(=O)C2CCC(C)CC2)C3=C(SC(=C3)\C4=C\CCCC4)C(O)=O (centres undefined)	90.9%
COC1=NC(=NC(=C1N\C2=N\CCN2)Cl)C	97.6%
CC1=C(/C=C/C(C)=C/C=C/C(C)=C/C=C/C=C(C)/C=C/C=C(C)/C=C/C2=C(C)CCCC2(C)C)C(C)(C)CCC1	92.9%

I'm curious: which cell viability was measured for CCC1(C)CC(=O)NC1=O (centres undefined) tested on NOMO1?
86.7%

I'm curious: which cell viability was measured for O=C([O-])C(O)Cc1ccc(O)c(O)c1 (centres undefined) tested on NOMO1?
74.9%

I'm curious: which cell viability was measured for CCCCCOC(=O)NC\1=N\C(=O)N(\C=C1F)[C@@H]2O[C@H](C)[C@@H](O)[C@H]2O tested on NOMO1?
72.8%

I'm curious: which cell viability was measured for CN(C)CCOc1cc(-c2cn[nH]c2)ccc1NC(=O)C1COc2ccccc2O1 (centres undefined) tested on NOMO1?
93.9%

I'm curious: which cell viability was measured for O=C(NCC[S+](=O)([O-])c1ccc(C(F)(F)F)cn1)c1ccc(Cl)cc1 tested on NOMO1?
122%

I'm curious: which cell viability was measured for Oc1ccc2c3c1O[C@H]1c4[nH]c5c(c4C[C@@]4(O)[C@@H](C2)N(CC2CC2)CC[C@]314)C[C@@]1(O)[C@H]2Cc3ccc(O)c4c3[C@@]1(CCN2CC1CC1)[C@H]5O4 tested on NOMO1?
132%

====

# System: P12-Ichikawa
# ASSAY NOTES: cell viability relative to DMSO control; higher = less cytotoxic
# TEST CONDITIONS: RPMI 5 mM glucose + 10% FBS; 48 h; 46.1 µM
READOUT NAME: cell viability (%)
Answer with a number only, understood to be in %.

Sample records with cell viability:
COMPOUND	TARGET ENTITY	RESULT UNIT	cell viability
CC1=CC=CC=C1N2\C(=N/C3=C(C(=CC=C3)C)C2=O)C[N]4C=NC5=C4N=CN=C5N	P12-Ichikawa	%	57.9
[NH2][Pt]1([NH2])[O]CC(=O)[O]1	P12-Ichikawa	%	102
CC1CCC(C(=O)N(c2cc(C#CC(C)(C)C)sc2C(=O)O)C2CCC(O)CC2)CC1 (stereo not given)	P12-Ichikawa	%	45.5

Now consider a different compound.
Find the recorded cell viability belonging to C[C@@H](NC1=CC=CC=C1C(O)=O)C/2=C/C(=C\N3C(=O)/C=C(\N=C23)N4CCOCC4)C and report it.
27.6

====

# Test system: SEM cells
# ASSAY NOTES: cell viability relative to DMSO control; higher = less cytotoxic
# TEST CONDITIONS: RPMI 5 mM glucose + 10% FBS; 48 h; 1.71 µM
READOUT NAME: cell viability (%)
Answer with a number only, understood to be in %.

Sample records with cell viability:
COMPOUND	RESULT UNIT	QUANTITATIVE READOUT
C[C@]\12CC[C@H](O)CC1=C/CC3C2CC[C@@]\4(C)C3C\C=C4[N]5C=NC6=C5C=CC=C6 (stereo partly drawn)	%	115
CC1=CC=CC=C1N2\C(=N/C3=C(C(=CC=C3)C)C2=O)C[N]4C=NC5=C4N=CN=C5N	%	54.8
NC1(Cc2ccc(Cl)cc2)CCN(c2ncnc3[nH]ccc23)CC1	%	79.6

Find the recorded cell viability belonging to O=C(Nc1ccccc1Br)N[C@@H]1CCN(c2ccc(C(F)(F)F)cn2)C1 and report it.
112

Find the recorded cell viability belonging to CC(=O)O[C@H]1C(=O)[C@]2(C)[C@@H](O)C[C@H]3OC[C@@]3(OC(C)=O)C2[C@H](OC(=O)C4=CC=CC=C4)[C@]5(O)C[C@H](OC(=O)[C@H](O)[C@@H](NC(=O)C6=CC=CC=C6)C7=CC=CC=C7)\C(=C1/C5(C)C)C (stereo partly drawn) and report it.
15.7

Find the recorded cell viability belonging to Cn1c(=O)c2c(ncn2C)n(C)c1=O.O=C(O)CC(O)(CC(=O)O)C(=O)O and report it.
96.1

Find the recorded cell viability belonging to OC1=CC=C(C=C1)\C2=C\OC3=C(C=CC(=C3)O)C2=O and report it.
104

Find the recorded cell viability belonging to C/C=C1\NC(=O)[C@H]2CSSCC/C=C\[C@H](CC(=O)N[C@H](C(C)C)C(=O)N2)OC(=O)[C@H](C(C)C)NC1=O and report it.
4.39

====

# Tested on: SEM cells
# ASSAY NOTES: cell viability relative to DMSO control; higher = less cytotoxic
# TEST CONDITIONS: HPLM + 10% dialyzed FBS; 48 h; 0.0632 µM
READOUT NAME: cell viability

COMPOUND	cell viability
CC1=CC=CC=C1N2\C(=N/C3=C(C(=CC=C3)C)C2=O)C[N]4C=NC5=C4N=CN=C5N	83.8%
O=C(Nc1ccccc1Br)N[C@@H]1CCN(c2ccc(C(F)(F)F)cn2)C1	127%
O=c1c(-c2ccc(O)cc2)coc2cc(O[C@@H]3O[C@H](CO)[C@@H](O)[C@H](O)[C@H]3O)ccc12	114%
CC(=O)O.Cc1c(-c2ccc(O)cc2)n(Cc2ccc(OCCN3CCCCCC3)cc2)c2ccc(O)cc12	99.7%
CCCCn1c(=O)n(Cc2ccccc2F)c(=O)c2nc(Cc3ccc(NC(C)=O)cc3)[nH]c21	104%
COc1nccc(-c2c(-c3ccc(F)cc3)ncn2C2CCNCC2)n1	120%
COC1=C(N2CCNC(C)C2)C(=CC3=C1N(\C=C(C(O)=O)/C3=O)C4CC4)F (stereo unspecified)	51.8%
O=C(NCC[S+](=O)([O-])c1ccc(C(F)(F)F)cn1)c1ccc(Cl)cc1	111%
CC(=O)Oc1ccccc1C(=O)O	102%
CN1[C@@H]2CC(OC(=O)[C@@H](CO)c3ccccc3)C[C@H]1[C@H]1O[C@H]12 (stereo partly specified)	93.5%

I'm curious: which cell viability was measured for O=NN(CCCl)C(=O)NCCCl tested on SEM cells?
100%

====

# Test system: P12-Ichikawa
# ASSAY NOTES: cell viability relative to DMSO control; higher = less cytotoxic
# TEST CONDITIONS: RPMI 5 mM glucose + 10% dialyzed FBS; 48 h; 0.0211 µM
READOUT NAME: cell viability (%)
Answer with a number only, understood to be in %.

Sample records with cell viability:
1) Nc1ccccc1NC(=O)c1ccc(CNC(=O)OCc2cccnc2)cc1 113
2) CO[C@H]1/C=C/O[C@@]2(C)Oc3c(C)c(O)c4c(O)c(c5c(nc6cc(C)ccn65)c4c3C2=O)NC(=O)/C(C)=C\C=C\[C@H](C)[C@H](O)[C@@H](C)[C@@H](O)[C@@H](C)[C@H](OC(C)=O)[C@@H]1C 99.9
3) C/C=C(/C)C(=O)O[C@H]1C(C)=C2[C@H]([C@@H]1OC(=O)CCCCCCC)[C@@](C)(OC(C)=O)C[C@H](OC(=O)CCC)[C@@]1(O)[C@H]2OC(=O)[C@@]1(C)O 112
4) C[C@]12C[C@H](O)[C@H]3[C@@H](CC\C4=C\C(=O)\C=C/[C@]34C)[C@@H]1CC[C@]2(O)C(=O)CO 121
5) C[C@](O)(COc1ccc(C#N)cc1)C(=O)Nc1ccc(C#N)c(C(F)(F)F)c1 81.6

Now consider a different molecule.
Find the recorded cell viability belonging to C[C@]12CC[C@@H]3c4ccc(OC(=O)N(CCCl)CCCl)cc4CC[C@H]3[C@@H]1CC[C@@H]2OP(=O)([O-])[O-].[Na+].[Na+] and report it.
82.8

====

# System: NOMO1
# ASSAY NOTES: cell viability relative to DMSO control; higher = less cytotoxic
# TEST CONDITIONS: RPMI 5 mM glucose + 10% dialyzed FBS; 48 h; 46.1 µM
cell viability values for the compounds below.
Answer with a number only, understood to be in %.

Sample records with cell viability:
COMPOUND	RESULT UNIT	cell viability
CCN(CC)CC#CCOC(=O)C(O)(c1ccccc1)C1CCCCC1 (stereo not given)	%	120
CC1CCC(C(=O)N(c2cc(C#CC(C)(C)C)sc2C(=O)O)C2CCC(O)CC2)CC1 (stereo not given)	%	46.1
CC(C)OC(=O)OCOP(=O)(CO[C@H](C)Cn1cnc2c(N)ncnc21)OCOC(=O)OC(C)C.O=C(O)C=CC(=O)O	%	15.1
Cc1ccccc1N1C(=O)c2cc([S+](N)(=O)[O-])c(Cl)cc2NC1C (stereo not given)	%	109
N=C(CCSCc1csc(N=C(N)N)n1)N[S+](N)(=O)[O-]	%	103
CCCCn1c(=O)n(Cc2ccccc2F)c(=O)c2nc(Cc3ccc(NC(C)=O)cc3)[nH]c21	%	68.8
OC[C@H]1O[C@@H](O[C@@H]2[C@@H](CO)O[C@](O)(CO)[C@H]2O)[C@H](O)[C@@H](O)[C@H]1O	%	80.6
CC(N[C@H]1C[C@@H]1c1ccccc1)c1ccc2c(c1)OCCO2 (stereo not given in full)	%	111

I'm curious: which cell viability was measured for Nc1ccccc1NC(=O)c1ccc(CNC(=O)OCc2cccnc2)cc1 tested on NOMO1?
2.99

I'm curious: which cell viability was measured for Cc1ccc(NC(=O)c2ccc(CN3CCN(C)CC3)cc2)cc1Nc1nc(-c2cccnc2)cs1 tested on NOMO1?
74.3

I'm curious: which cell viability was measured for ClC1=C(N\C2=N\CCN2)C3=NSN=C3C=C1 tested on NOMO1?
140

I'm curious: which cell viability was measured for CC(=O)N(C)c1cccc(-c2ccnc3c(C(=O)c4cccs4)cnn23)c1 tested on NOMO1?
82.2

I'm curious: which cell viability was measured for COc1cc2c(cc1OC)C1CC(=O)C(CC(C)C)CN1CC2 (stereo not given) tested on NOMO1?
125
